experiment: Liver function tests; format: in vivo; conditions: mice, 10 mg/kg, Before
MEASUREMENT_NAME: T.P. (g/dL)
Write down the numeric answer in g/dL and omit the unit.

*Q* What measured T.P. goes with Cc1ccc(NC(=O)CNC(=O)C(C)NS(=O)(=O)c2ccccc2)cc1 (stereo not shown) ?
*A* 5.8

*Q* What measured T.P. goes with Cc1ccc(S(=O)(=O)NC(C)C(=O)NCC(=O)Nc2cccc(F)c2)cc1 (stereo not shown) ?
*A* 6.0

*Q* What measured T.P. goes with CC(NS(=O)(=O)c1ccccc1)C(=O)NCC(=O)Nc1cccc(F)c1 (stereo not shown) ?
*A* 5.8

*Q* What measured T.P. goes with Cc1ccc(S(=O)(=O)NC(C)C(=O)NCC(=O)Nc2cccc(Cl)c2)cc1 (stereo not shown) ?
*A* 6.0
